A collection of molecules and their measured pIC50
Target: ALK tyrosine kinase receptor (Homo sapiens, UniProt Q9UM73)
Sequence (Q9UM73 whole entry): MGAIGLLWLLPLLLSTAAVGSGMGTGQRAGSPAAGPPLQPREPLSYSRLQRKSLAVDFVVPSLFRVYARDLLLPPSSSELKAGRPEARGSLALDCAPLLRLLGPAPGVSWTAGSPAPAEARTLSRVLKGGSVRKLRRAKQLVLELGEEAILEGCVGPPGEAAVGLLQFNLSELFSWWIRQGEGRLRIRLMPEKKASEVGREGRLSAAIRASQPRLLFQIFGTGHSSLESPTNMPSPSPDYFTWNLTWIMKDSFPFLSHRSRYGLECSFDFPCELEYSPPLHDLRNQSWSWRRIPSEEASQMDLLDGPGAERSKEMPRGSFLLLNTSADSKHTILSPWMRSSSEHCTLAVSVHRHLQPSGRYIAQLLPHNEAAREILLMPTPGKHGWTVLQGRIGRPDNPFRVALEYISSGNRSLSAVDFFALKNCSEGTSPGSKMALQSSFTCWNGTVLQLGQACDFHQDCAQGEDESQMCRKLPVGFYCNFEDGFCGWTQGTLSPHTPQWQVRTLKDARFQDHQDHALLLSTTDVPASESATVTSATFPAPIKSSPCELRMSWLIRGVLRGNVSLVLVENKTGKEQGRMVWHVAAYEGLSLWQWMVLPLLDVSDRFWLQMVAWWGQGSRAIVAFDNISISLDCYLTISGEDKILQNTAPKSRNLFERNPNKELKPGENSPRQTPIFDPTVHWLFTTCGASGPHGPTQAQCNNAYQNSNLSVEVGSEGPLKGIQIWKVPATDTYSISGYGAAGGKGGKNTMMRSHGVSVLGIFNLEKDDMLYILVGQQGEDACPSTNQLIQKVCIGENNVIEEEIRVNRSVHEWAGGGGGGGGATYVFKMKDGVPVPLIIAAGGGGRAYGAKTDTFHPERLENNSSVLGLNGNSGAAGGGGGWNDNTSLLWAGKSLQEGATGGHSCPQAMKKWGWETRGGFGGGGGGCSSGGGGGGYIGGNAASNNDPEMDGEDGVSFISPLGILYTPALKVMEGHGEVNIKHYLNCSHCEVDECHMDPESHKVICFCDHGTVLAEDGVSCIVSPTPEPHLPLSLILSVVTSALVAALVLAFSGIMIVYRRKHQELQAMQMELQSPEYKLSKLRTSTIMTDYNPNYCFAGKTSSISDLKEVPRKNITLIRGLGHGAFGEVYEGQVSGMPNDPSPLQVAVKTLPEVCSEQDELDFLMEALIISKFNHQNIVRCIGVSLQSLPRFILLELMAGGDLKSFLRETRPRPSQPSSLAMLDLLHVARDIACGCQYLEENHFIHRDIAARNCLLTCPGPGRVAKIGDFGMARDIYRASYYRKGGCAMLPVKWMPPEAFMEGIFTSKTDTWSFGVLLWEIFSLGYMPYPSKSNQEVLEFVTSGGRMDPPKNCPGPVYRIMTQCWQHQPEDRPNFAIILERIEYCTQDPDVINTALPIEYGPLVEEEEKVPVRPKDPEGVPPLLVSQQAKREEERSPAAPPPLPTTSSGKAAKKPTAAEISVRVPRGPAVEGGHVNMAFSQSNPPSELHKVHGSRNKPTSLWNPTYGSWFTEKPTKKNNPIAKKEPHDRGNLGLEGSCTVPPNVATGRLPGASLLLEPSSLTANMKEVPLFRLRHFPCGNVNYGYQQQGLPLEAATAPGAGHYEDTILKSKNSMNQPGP
Assay: Inhibition of wild type human recombinant ALK after 30 mins by TR-FRET assay
Entry type: numeric. Quantity: pIC50, the -log10 of concentration in molar units.

Give the measured pIC50 of `Cn1cc(-c2cnc3[nH]cc(-c4cnn(Cc5cccc(Cl)c5)c4)c3c2)cn1` . 7.52

Please look up its pIC50: `Cn1cc(-c2cnc3[nH]cc(-c4cnn(Cc5ccc(F)cc5)c4)c3c2)cn1` 7.15

Let's switch to this molecule now.
Given the entry `Cn1cc(-c2cnc3[nH]cc(-c4cnn(Cc5cccc([N+](=O)[O-])c5)c4)c3c2)cn1` , report its measured pIC50. 7.15
